Ref: the supplement of paper PMC10567573

Reported values of protein stability index for individual entries
B1: MED27 (parent)
chain: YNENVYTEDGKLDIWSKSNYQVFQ

- Variants of: B1
- ASSAY_EXPLANATION: protein stability index of a GFP-peptide fusion (GPS, HEK-293T) (PSI 1-6); higher = more stable;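 further: lentivirally expressed fusions sorted by FACS into six bins by GFP to DsRed ratio, PSI derived from sequencing read proportions per bin multiplied by bin number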
- MEASUREMENT_SETUP: c terminus: a fixed tail appended
Give the value as a plain number.

Worked set:
L12I : 2.23
W15S : 3.83
S16E : 2.6

// switching to the query variant
Item under review: N2K . Reported protein stability index?
2.91
